FYI, the data here is from PubChem BioAssay.

Tested On: Calmodulin-1 (Homo sapiens) (UniProt P0DP23)
Test Method Notes: small molecules binding Ca-loaded calmodulin-1 – biochemical, small-molecule microarray, Cy5-labelled CALM1, plus calcium, artefact control for SMM control-protein annotation, profiling panel (AID 1112);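 note: score merges spot fluorescence with signal to noise from triplicate slides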
Experimental Context: Cy5-CALM1 binding fluorescence, higher = more signal
Property Name: composite z-score

Compound	composite z-score
CC(C)NC(=O)[C@@]1(Cc2ccccc2I)c2ccccc2C(=O)N(Cc2ccccc2C(F)(F)F)[C@H]1c1ccc(CO)cc1	0.377
C=C(COC)/C(=C/C[C@@H](OC(=O)c1ccncc1)c1cccc(OCCO)c1)c1cc(C(=O)OC)ccc1OC	-0.698
COCCOC(=O)N1C(=O)[C@@]2(c3cc(C#CC4(O)CCCCCC4)ccc31)[C@H](C(=O)NC[C@H](O)c1ccccc1)[C@H]1C(=O)O[C@H](c3ccccc3)[C@H](c3ccccc3)N1[C@@H]2c1ccc(OCCO)cc1	0.383
CN(C)C(=O)[C@@]1(Cc2ccccc2N=[N+]=[N-])N=C(c2ccc(OCCCO)cc2)O[C@H]1c1ccccc1N=[N+]=[N-]	0.859
CCCN1C(=O)[C@@H]2Cc3c([nH]c4ccccc34)[C@@H](c3cccc(O)c3)N2C1=O	-0.346
CCOC(=O)C[C@H]1[C@H](OC(=O)c2ccc(C(=O)c3ccccc3)cc2)[C@@H](NC(=O)C2CCCCC2)c2cc(OCCCO)ccc2N1C(=O)Cc1ccc(OC)cc1	0.304
C/C=C/[C@@H](CCn1cc([C@H](O)c2ccccc2)nn1)[Si](C)(C)c1ccc(OC)cc1	-1.35
CC1CC/C=C\[C@H]2OC34C=CCN(Cc5ccccc5)C(=O)[C@H]3N(CCO)C(=O)[C@@H]4C2C(=O)O1 (stereo partly drawn)	0.0116
C=C(C(=O)CC[C@H](OC(=O)c1cccnc1)c1ccc(OCCO)cc1)C(C)C	-1.01
O=C1O[C@@H](c2ccccc2)[C@@H](c2ccccc2)N2[C@@H](c3ccc(O)cc3)[C@]3(C(=O)Nc4ccc(C#CC5(O)CCCCCC5)cc43)[C@@H](C(=O)N3CCN(c4ncccn4)CC3)[C@H]12	0.137

Please supply composite z-score for each of the following items, keeping them in order.
1. CCCC=C(CCC)[C@@H](NS(=O)(=O)CC)c1ccccc1
2. COCCCNC(=O)[C@@]1(Cc2ccccc2N=[N+]=[N-])N=C(c2ccc(OCCCO)cc2)O[C@H]1c1ccccc1CN=[N+]=[N-]
3. NC(=O)[C@H]1[C@@H]2C(=O)O[C@@H](c3ccccc3)[C@@H](c3ccccc3)N2[C@@H](c2ccc(O)cc2)[C@]12C(=O)Nc1ccc(C#CC3(O)CCCCCC3)cc12
4. O=C1OCC=C[C@H]2OC34C=CCN(CCN5CCOCC5)C(=O)[C@H]3N(CCCCCO)C(=O)[C@@H]4[C@@H]12 (stereo partly drawn)
5. OCCCC1=CC(c2cccs2)N(Cc2cccc(OC(F)(F)F)c2)CC1 (stereo not drawn)
6. COCCCNC(=O)[C@@H]1c2ccccc2C(=O)N(c2ccc(C)cn2)[C@H]1c1ccc(CO)cc1

1. 0.855
2. 0.0507
3. -0.227
4. -0.953
5. 0.639
6. -0.827

Please supply composite z-score for each of the following items, keeping them in order.
1. O=C1c2ccccc2[C@](Cc2ccccc2I)(C(=O)NC2CC2)[C@H](c2ccc(CO)cc2)N1Cc1ccccc1Cl
2. CC(C)c1ccc(NN2C(C(O)c3cccs3)C=CC3C(=O)N(c4ccccc4)C(=O)C32)cc1 (stereo not drawn)
3. CC(C)(C)OC(=O)CC[C@]1(C(=O)N2CCCCC2)N=C(c2ccc(OCCCO)cc2)O[C@H]1c1ccccc1CN=[N+]=[N-]
4. C=CCOC(=O)[C@@H]1[C@H]2C(=O)O[C@H](c3ccccc3)[C@H](c3ccccc3)N2[C@H](c2ccc(OCCOC(=O)[C@@H]3C[C@@H]4C(=O)N[C@@H](CCCCNC(C)=O)C(=O)N4[C@@H]3c3ccc(O)cc3)cc2)[C@@]12C(=O)Nc1ccc(I)cc12
5. COC(=O)c1ccc(OC)c(/C=C\CC(CCc2ccccc2)OC(C)=O)c1 (stereo not drawn)
6. C=CCN1C(=O)[C@@]2(O[C@@H](CCn3cc([C@H](O)c4ccccc4)nn3)[C@H]([Si](C)(C)c3ccc(OC)cc3)[C@H]2C)c2cc(NC(=O)c3ccc(OC)cc3)ccc21
7. CCC[C@@H]1C[C@@]1(CCC)[C@@H](NC(=O)c1cccs1)c1ccc(Cl)cc1
8. CC(C)CNC(=O)[C@@]1(C)c2ccccc2C(=O)N(Cc2ccccc2)[C@H]1c1ccc(CO)cc1

[0.61, 0.795, 0.566, -0.342, -0.134, 0.14, 0.881, 0.431]

Please supply composite z-score for each of the following items, keeping them in order.
1. CCCC[C@H]1OB(O)C[C@H]2C1=C(COc1ccccc1)Cn1c(=O)n(-c3ccccc3)c(=O)n12
2. COCCOC(=O)N1C(=O)[C@@]2(c3cc(C#CC4(O)CCCCCC4)ccc31)[C@H](C(=O)N1CCc3cc(OC)c(OC)cc3C1)[C@H]1C(=O)O[C@H](c3ccccc3)[C@H](c3ccccc3)N1[C@@H]2c1ccccc1OCCO
3. Cc1ccc(S[C@]2(C(=O)NCC(C)C)CC(=O)N(C3CCCCC3)[C@@H]2c2ccc(CO)cc2I)cc1
4. Cc1ccc(S[C@]2(C(=O)NCCN3CCOCC3)CC(=O)N(C3Cc4ccccc4C3)[C@@H]2c2ccc(CO)cc2)cc1

1: -0.0404; 2: -0.386; 3: 0.549; 4: -0.399
